# Test system: T1, Human calcitonin receptor (human, UniProt P30988)
# T1 sequence: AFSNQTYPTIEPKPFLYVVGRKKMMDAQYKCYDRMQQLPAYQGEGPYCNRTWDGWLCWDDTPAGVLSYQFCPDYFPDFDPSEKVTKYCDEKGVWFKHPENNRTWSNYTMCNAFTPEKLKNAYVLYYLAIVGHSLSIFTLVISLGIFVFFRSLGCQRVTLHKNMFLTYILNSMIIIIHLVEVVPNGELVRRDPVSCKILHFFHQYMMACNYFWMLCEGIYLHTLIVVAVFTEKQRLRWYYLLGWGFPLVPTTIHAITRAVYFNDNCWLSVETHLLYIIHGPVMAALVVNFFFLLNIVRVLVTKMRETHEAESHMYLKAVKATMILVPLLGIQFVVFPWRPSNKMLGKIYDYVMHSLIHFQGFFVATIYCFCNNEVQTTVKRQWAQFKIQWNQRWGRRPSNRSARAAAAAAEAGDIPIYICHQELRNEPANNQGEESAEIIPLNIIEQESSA
# Assay summary: cell-based or functional assay
Starred links: 1 amine or outer side, 2 acyl side, 3 side chain; linkers in the order of their positions; H or OH if unused. Non-standard residues stand in square brackets, D forms with d. Groups on a side chain read outwards from the residue. γGlu = O=C(O)[C@H](CCC(=O)[*:2])N[*:1]; C(:O)(CH2)nR3 = not defined here; Aib = CC(C)(N)C(=O)O
Readout name: EC50 (nM), cAMP cell-based agonist assay

The cases that follow already have their EC50 (nM), cAMP cell-based agonist assay on record.
Peptide No. 15 (reading uncertain; also: K* n and R3 not given here, acetate salt) peptide: Y[dA]EGTFTSDYSIALDKIAQQAFVQWLLAGGPSCNTATCVLGRLSQELHRLQTYPRTNTGK([γGlu-γGlu-C(:O)(CH2)nR3])NTY-NH2
0.071
Peptide No. 10 (reading uncertain; also: K* acyl n and R3 not given here, acetate salt, printed as Y-Aib-E-G-T-F-T-S-D-Y-S-I-Aib-L-D-K-I-A-Q-K*-AFVQWLLAGGPSCNTATCATQRLANFLVHSSNNFGPILPPTNVGSNTY-NH2) peptide: Y[Aib]EGTFTSDYSI[Aib]LDKIAQK([γGlu-γGlu-C(:O)(CH2)nR3])AFVQWLLAGGPSCNTATCATQRLANFLVHSSNNFGPILPPTNVGSNTY-NH2
12.4
Peptide No. 19 (reading uncertain; also: K* n and R3 not given here, acetate salt) peptide: [dY]AEGTFTSDYSIQLDKIAQQAFVQWLLAGGPSCNTATCVLGRLSQELHRLQTYPRTNTGK([γGlu-γGlu-C(:O)(CH2)nR3])NTY-NH2
0.1
Peptide No. 21 (reading uncertain; also: K* n and R3 not given here, acetate salt) peptide: [dY]AEGTFTSDYSIQLDKIAQQAFVQWLLAGSGCNTATCVLGRLSQELHRLQTYPRTNTGK([γGlu-γGlu-C(:O)(CH2)nR3])NTY-NH2
0.11

a = Peptide No. 17 (reading uncertain; also: K* n and R3 not given here, acetate salt) peptide: [dY]AEGTFTSDYSIALDKIAQQAFVQWLLAGGPSCNTATCVLGRLSQELHRLQTYPRTNTGK([γGlu-γGlu-C(:O)(CH2)nR3])NTY-NH2
b = Peptide No. 22 (reading uncertain; also: K* n and R3 not given here, acetate salt) peptide: [dY]AEGTFTSDYSIQLDKIAQQAFVQWLLAGSGCNTATCATQRLANFLVHSSNNFGPILPPTNVGK([γGlu-γGlu-C(:O)(CH2)nR3])NTY-NH2
Kindly compare a with b and tell me which has the lower EC50 (nM), cAMP cell-based agonist assay figure. When you have decided, please share the label of that item.
a

This collection of values is drawn from patent US20230203100A1.
